- System name: HLA-A*24 (human)
- Assay text: UV-ligand exchange, b2m ELISA
Property name: peptide exchange yield

Look over these answered cases.
{"Binder": "EYSLFPGQVVI [… (SEQ ID No 197)]", "peptide exchange yield": "50 to 75%"}
{"Binder": "LYLDKATLI [… (SEQ ID No 198)]", "peptide exchange yield": "50 to 75%"}

Provide each entry's peptide exchange yield from the list below.
1. VFTRVSSFL [… (SEQ ID No 162)]
2. IFLDYEAGTLSF [… (SEQ ID No 227)]
3. TFSVSSHLF [… (SEQ ID No 222)]
4. IYDDSFIRPVTF [… (SEQ ID No 180)]

Output:
50 to 75%
> 75%
50 to 75%
50 to 75%

Provide each entry's peptide exchange yield from the list below.
1. QYLQDAYSF [… (SEQ ID No 272)]
2. PYRLIFEKF [… (SEQ ID No 281)]
3. VYWDSAGAAHF [… (SEQ ID No 202)]
4. IYLVSIPEL [… (SEQ ID No 161)]
5. TYGDAGLTYTF [… (SEQ ID No 283)]
6. YYVESGKLF [… (SEQ ID No 166)]
7. QYSSVFKSL [… (SEQ ID No 216)]

Output:
1. > 75%
2. 20 to 49%
3. > 75%
4. > 75%
5. 50 to 75%
6. > 75%
7. > 75%

Provide each entry's peptide exchange yield from the list below.
1. LYNKGFIYL [… (SEQ ID No 159)]
2. HYSQELSLLYL [… (SEQ ID No 158)]
3. VFKASKITF [… (SEQ ID No 191)]
4. TYTTVPRVAF [… (SEQ ID No 172)]
5. VFQNFPLLF [… (SEQ ID No 184)]
6. VYQGHTALL [… (SEQ ID No 277)]
7. KYMVYPQTF [… (SEQ ID No 267)]

Output:
> 75%
> 75%
50 to 75%
> 75%
> 75%
> 75%
> 75%

Provide each entry's peptide exchange yield from the list below.
1. TYKDEGNDYF [… (SEQ ID No 209)]
2. KFVDSTFYL [… (SEQ ID No 282)]
3. RFHPTPLLL [… (SEQ ID No 193)]
4. HYPPVQVLF [… (SEQ ID No 285)]
5. LYLDIINLF [… (SEQ ID No 181)]

Output:
1. 50 to 75%
2. > 75%
3. > 75%
4. 50 to 75%
5. > 75%

Provide each entry's peptide exchange yield from the list below.
1. EYPLVINTL [… (SEQ ID No 219)]
2. TYIKPISKL [… (SEQ ID No 273)]
3. TYSVSFPMF [… (SEQ ID No 195)]
4. QYLGQIQHI [… (SEQ ID No 268)]
5. GFFIFNERF [… (SEQ ID No 190)]

Output:
50 to 75%
50 to 75%
> 75%
50 to 75%
50 to 75%

Provide each entry's peptide exchange yield from the list below.
1. IYSWILDHF [… (SEQ ID No 173)]
2. DYLKGLASF [… (SEQ ID No 163)]

Output:
["> 75%", "> 75%"]
